- target_entity: T1, LRP1 CR3-5 (UniProt Q07954 852-973, limits assumed)
- T1 construct: domain: CR3-5; also called LRP1 CR domains
- experimental_details: solid-phase binding (OD), single-site non-linear regression
outcome_measure: Kd (nM)

INSERT INTO assay_data (binder, readout_units, recorded_result) VALUES
  ('RAP d3 E217K (ligand, also called RAP E217K) GLDRLRRVSHQGYSTEAKFEEPRVIDLWDLAQSANLTDKELEAFREELKHFEAKIEKHNHYQKQLEIAHEKLRHAESVGDGERVSRSREKHALLEGRTKELGYTVKKHLQDLSGRISRARHNEL', 'nM', 9);

[P] MegaRAP1 d3 A256K, E270K (ligand, also called MegaRAP1 A256K, E270K) GLDRLRRVSHQGYTTEAKFEEPRVIDLWDLAQSANLTDKELEAFREELKYFKAKIEKHNHYQKQLEIAHEKLRHAESVGDGERVSRSREKHALLEGRTKELGYTVKKHLQDLSGRISRARHNEL
[Q] RAP d3 H249Y (ligand, also called RAP H249Y) GLDRLRRVSHQGYSTEAEFEEPRVIDLWDLAQSANLTDKELEAFREELKYFEAKIEKHNHYQKQLEIAHEKLRHAESVGDGERVSRSREKHALLEGRTKELGYTVKKHLQDLSGRISRARHNEL
[R] RAP d3 E251K (ligand, also called RAP E251K) GLDRLRRVSHQGYSTEAEFEEPRVIDLWDLAQSANLTDKELEAFREELKHFKAKIEKHNHYQKQLEIAHEKLRHAESVGDGERVSRSREKHALLEGRTKELGYTVKKHLQDLSGRISRARHNEL
[S] MegaRAP1 d3 E270K (ligand, also called MegaRAP1 E270K) GLDRLRRVSHQGYTTEAKFEEPRVIDLWDLAQSANLTDKELEAFREELKYFKAKIEAHNHYQKQLEIAHEKLRHAESVGDGERVSRSREKHALLEGRTKELGYTVKKHLQDLSGRISRARHNEL
hey, can you rank those binders up there by Kd? biggest number first please Note for the reader: the ranking is given by listing the labels in the order requested.
S, Q, R, P

FYI, the data here is from patent US20120251444A1.
